tested on: human APOE RNA; experiment: Dose-dependent inhibition of human APOE RNA in HepG2 cells, electroporation, 50,000 cells per well, RT-PCR normalized to GAPDH (Example 4, Tables 8-10); type: cell-based; conditions: 3,200 nM; HepG2, electroporation, 16-hour treatment
Strand notation (5' to 3'): a small letter for the sugar, then the base; units joined by * are phosphorothioate-linked, units joined directly phosphodiester-linked; [ ] holds rarer units or linkages, { } end groups; capitals alone tell only the bases. e = 2'-O-(2-methoxyethyl) (MOE); k = constrained ethyl (cEt); [5mC] = 5-methylcytosine; d = 2'-deoxy (DNA)
recorded_metric: APOE RNA (% UTC)
Answers are plain numbers, in % UTC.

| substance | target_or_system | APOE RNA (% UTC) |
| --- | --- | --- |
| 1757581 (eT*eTeGeGkT*dG*dA*dA*dT*d[5mC]*dT*dT*dT*dA*dT*eTeAeA*eA*e[5mC]; antisense) [Compound 1757581] | human APOE RNA | 25 |
| 1757551: mixed MOE/cEt gapmer TTGGTGAATCTTTATTAA, sugar eeekkddddddddeeeee, linkages soossssssssssooss (eT*eTeGkG*kT*dG*dA*dA*dT*d[5mC]*dT*dT*dT*eAeTeT*eA*eA) [compound 1757551] | human APOE RNA | 29 |

Go through the items and report each one's APOE RNA (% UTC).
1. 1757586 (eT*eTeGeGkT*dG*dA*dA*dT*d[5mC]*dT*dT*dT*dA*dT*kTkAeA*eA*e[5mC]; antisense) [Compound 1757586]
2. 1757566 (eA*e[5mC]eTkTkG*dG*dT*dG*dA*dA*dT*d[5mC]*dT*dT*dT*eAeTeT*eA*eA; antisense) [Compound 1757566]

-- reply
1. 20
2. 22

-- ask Provide human APOE RNA APOE RNA (% UTC) reading for 1757564: mixed MOE/cEt gapmer TTGGTGAATCTTTATTAA, sugar eeeekddddddddkeeke, linkages soossssssssssooss (eT*eTeGeG*kT*dG*dA*dA*dT*d[5mC]*dT*dT*dT*kAeTeT*kA*eA) [compound 1757564] .
-- reply 39

====

test system: human APOE RNA; assay: Activity in APOE C57BL/6NTac-Apoeem7250 knock-in mice, single ICV bolus, 16 weeks (Example 12); type: in vivo; conditions: cortex; single ICV bolus 300 μg; 16 weeks post treatment; normalized to mouse Ppia
Strand notation (5' to 3'): a small letter for the sugar, then the base; units joined by * are phosphorothioate-linked, units joined directly phosphodiester-linked; [ ] holds rarer units or linkages, { } end groups; capitals alone tell only the bases. [ms] = mesyl phosphoramidate linkage; e = 2'-O-(2-methoxyethyl) (MOE); k = constrained ethyl (cEt); [5mC] = 5-methylcytosine; d = 2'-deoxy (DNA)
Recorded APOE RNA (% control) Cortex determines the group label, using low: < 50 % control; mid: ≥ 50 % control and < 90 % control; high: ≥ 90 % control

Examples with answers:
| substance | assigned_class |
| --- | --- |
| 1681007: 5-10-5 MOE gapmer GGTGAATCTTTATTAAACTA, linkages zsssszsssszzszssszz (antisense eG[ms]eG*eT*eG*eA*dA[ms]dT*d[5mC]*dT*dT*dT[ms]dA[ms]dT*dT[ms]dA*eA*eA*e[5mC][ms]eT[ms]eA) [compound 1681007] | high |
| ^mCksTksTksGdzGdzTdzGdzAdzAdzTds^mCdsTdsTdsTdsAdsTdsTksAksAdzAk (antisense k[5mC]*kT*kT*dG[ms]dG[ms]dT[ms]dG[ms]dA[ms]dA[ms]dT*d[5mC]*dT*dT*dT*dA*dT*kT*kA*dA[ms]kA) [Compound No. 1785602] | low |

-- ask Textbook exercise: identify the category of the substance given here, 1693104: 6-10-4 MOE gapmer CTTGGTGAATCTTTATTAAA, linkages ssossszzzssssszssss (e[5mC]*eT*eTeG*eG*eT*dG[ms]dA[ms]dA[ms]dT*d[5mC]*dT*dT*dT*dA[ms]dT*eT*eA*eA*eA) [compound 1693104] , according to its measured value.
-- reply high

-- ask Textbook exercise: identify the category of the substance given here, 1693102: 6-10-4 MOE gapmer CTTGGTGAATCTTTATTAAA, linkages ssssoszzzssssszssss (e[5mC]*eT*eT*eG*eGeT*dG[ms]dA[ms]dA[ms]dT*d[5mC]*dT*dT*dT*dA[ms]dT*eT*eA*eA*eA) [compound 1693102] , according to its measured value.
-- reply mid

-- ask Textbook exercise: identify the category of the substance given here, 1693048: 5-10-5 MOE gapmer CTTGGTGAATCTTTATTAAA, linkages ssssszzzzssssszosss (antisense e[5mC]*eT*eT*eG*eG*dT[ms]dG[ms]dA[ms]dA[ms]dT*d[5mC]*dT*dT*dT*dA[ms]eTeT*eA*eA*eA) [compound 1693048] , according to its measured value.
-- reply high

-- ask Textbook exercise: identify the category of the substance given here, 1693055: 5-10-5 MOE gapmer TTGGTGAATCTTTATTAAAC, linkages sososzzzsssssssosss (antisense eT*eTeG*eGeT*dG[ms]dA[ms]dA[ms]dT*d[5mC]*dT*dT*dT*dA*dT*eTeA*eA*eA*e[5mC]) [compound 1693055] , according to its measured value.
-- reply high

-- ask Textbook exercise: identify the category of the substance given here, 1652903: 6-10-4 MOE gapmer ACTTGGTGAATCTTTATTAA, linkages sooooossssssssssoss (antisense eA*e[5mC]eTeTeGeGdT*dG*dA*dA*dT*d[5mC]*dT*dT*dT*dA*eTeT*eA*eA) [compound 1652903] , according to its measured value.
-- reply mid

-- ask Textbook exercise: identify the category of the substance given here, 1693047: 5-10-5 MOE gapmer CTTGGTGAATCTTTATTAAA, linkages sssoszzzzssssszosss (antisense e[5mC]*eT*eT*eGeG*dT[ms]dG[ms]dA[ms]dA[ms]dT*d[5mC]*dT*dT*dT*dA[ms]eTeT*eA*eA*eA) [compound 1693047] , according to its measured value.
-- reply high

-- ask Textbook exercise: identify the category of the substance given here, 1693041: 5-10-5 MOE gapmer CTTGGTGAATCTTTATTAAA, linkages ssossszzzssssssosss (antisense e[5mC]*eT*eTeG*eG*dT*dG[ms]dA[ms]dA[ms]dT*d[5mC]*dT*dT*dT*dA*eTeT*eA*eA*eA) [compound 1693041] , according to its measured value.
-- reply mid

-- ask Textbook exercise: identify the category of the substance given here, 1736513 (e[5mC]*eTeT*eG*eG*kT*dG[ms]dA[ms]dA[ms]dT*d[5mC]*dT*dT*dT*dA[ms]dT*eT*eA*eA*eA; antisense) [Compound 1736513] , according to its measured value.
-- reply mid

====

Kindly supply the reported APOE RNA (% UTC) values for the records listed here.
system: human APOE RNA; assay: Dose-dependent reduction of human APOE RNA in HepG2 cells, electroporation, 20,000 cells per well, average of GAPDH- and PPIA-normalized results (Example 4, Table 12); assay type: cell-based; settings: 1,280 nM, HepG2, 20,000 cells per well
Strand notation (5' to 3'): a small letter for the sugar, then the base; units joined by * are phosphorothioate-linked, units joined directly phosphodiester-linked; [ ] holds rarer units or linkages, { } end groups; capitals alone tell only the bases. [ms] = mesyl phosphoramidate linkage; e = 2'-O-(2-methoxyethyl) (MOE); k = constrained ethyl (cEt); [5mC] = 5-methylcytosine; d = 2'-deoxy (DNA)
Give bare numbers, in % UTC.

Go through the items and report each one's APOE RNA (% UTC).
1. 1785598: modified oligonucleotide complementary to human APOE RNA (k[5mC]*kT*kT*dG[ms]dG[ms]dT[ms]dG[ms]dA[ms]dA[ms]dT*d[5mC]*dT*dT*dT*dA*dT[ms]kT*kA*dA[ms]kA; antisense) [compound 1785598]
2. 1778128: modified oligonucleotide complementary to human APOE RNA (eA*e[5mC]eTeTkGkG*dT*dG[ms]dA[ms]dA*dT*d[5mC]*dT*dT*dT*dA[ms]kTeT*eA*eA; antisense) [compound 1778128]
3. Aes^mCeoTeoTesGesGksTdsGdzAdzAdzTds^mCdsTdsTdsTdsAdzTksTksAesAe (eA*e[5mC]eTeT*eG*kG*dT*dG[ms]dA[ms]dA[ms]dT*d[5mC]*dT*dT*dT*dA[ms]kT*kT*eA*eA) [Compound No. 1757576]
4. ^mCksTksTksGdzGdzTdzGdzAdzAdzTds^mCdsTdsTdsTdsAdsTdsTksAksAdzAk (antisense k[5mC]*kT*kT*dG[ms]dG[ms]dT[ms]dG[ms]dA[ms]dA[ms]dT*d[5mC]*dT*dT*dT*dA*dT*kT*kA*dA[ms]kA) [Compound No. 1785602]

-- reply
1. 23
2. 24
3. 29
4. 33

Go through the items and report each one's APOE RNA (% UTC).
1. 1785617: modified oligonucleotide complementary to human APOE RNA (k[5mC]*dT[ms]dT[ms]kG*dG[ms]kT*dG[ms]dA[ms]dA[ms]dT[ms]d[5mC]*dT*dT*dT*dA*dT*kT*kA*dA[ms]kA; antisense) [compound 1785617]
2. 1785599: modified oligonucleotide complementary to human APOE RNA (k[5mC]*kT*kT*dG[ms]dG[ms]dT[ms]dG[ms]dA[ms]dA[ms]dT[ms]d[5mC]*dT*dT*dT*dA*dT*kT*kA*dA[ms]kA; antisense) [compound 1785599]
3. 1778111: modified oligonucleotide complementary to human APOE RNA (eA*e[5mC]eTeTeG*kG*dT*dG[ms]dA[ms]dA*dT*d[5mC]*dT*dT*dT*dA[ms]eTeT*eA*eA; antisense) [compound 1778111]
4. 1778130: modified oligonucleotide complementary to human APOE RNA (eA*e[5mC]eTeTeG*kG*dT*dG[ms]dA[ms]dA*dT*d[5mC]*dT*dT*dT*dA[ms]kTkT*eA*eA; antisense) [compound 1778130]
5. 1757575 (eA*e[5mC]eTeT*kG*kG*dT*dG[ms]dA[ms]dA[ms]dT*d[5mC]*dT*dT*dT*dA[ms]kT*eT*eA*eA; antisense) [Compound 1757575]
6. 1746809 (k[5mC]*dT[ms]kT*dG[ms]kG*dT[ms]dG[ms]dA[ms]dA[ms]dT*d[5mC]*dT*dT*dT*dA[ms]dT*dT[ms]kA*kA*kA; antisense) [Compound 1746809]
7. 1778131: modified oligonucleotide complementary to human APOE RNA (eA*e[5mC]eTeTeGkG*dT*dG[ms]dA[ms]dA*dT*d[5mC]*dT*dT*dT*dA[ms]kTkT*eA*eA; antisense) [compound 1778131]

-- reply
1: 23; 2: 32; 3: 32; 4: 20; 5: 34; 6: 28; 7: 25
